# measurement.description: Quantitative High-Throughput drug screen in 47 multiple myeloma cell lines against the NCATS MIPE library collection: RPMI8226_ATCC cell viability assay (AID 1919871); further: nearly all actives have a fitted effect of over 30% in size
# stated.conditions: RPMI8226 myeloma viability, CellTiter-Glo ATP luminescence, 48 h; series mostly up to 45.8 µM
Records with an inconclusive call do not appear. The source made the active and inactive calls. The call rests on the fitted dose curve; in most records, active means well fitted cell-killing curve with a large enough effect; inconclusive means small, poorly fitted or top-dose-only effect, or effect the other way; inactive means no such curve, though single readings can be large or run the other way.
Choose the fitting class; nothing outside label 1 = active, label 0 = inactive is accepted.

> print(dat)
                                   compound  class.assignment
1  O=C(O)c1c(Cl)c(Cl)c(Cl)c(Cl)c1-c1c2cc(I)c(=O)c(I)c-2oc2c(I)c(O)c(I)cc12           label 1

**Q:** Dear all, I need the recorded test outcome for Cc1ccc([C@@H]2O[C@H](CO)[C@@H](O)[C@H](O)[C@@H]2O)cc1Cc1ccc(-c2ccc(F)cc2)s1 , thank you.
**A:** label 0

**Q:** Recorded test call requested for COc1ccc(-n2c(C)c([N+](=O)[O-])c3ccc(O)cc32)cc1
**A:** label 0

**Q:** // param item: CCc1ccc(C=C2SC(=S)NC2=O)cc1 ; yields the recorded call
**A:** label 0

---

# test.system: Thyrotropin-releasing hormone receptor (Homo sapiens)
# measurement.description: qHTS for Small Molecule Agonists and Allosteric Enhancers of Human TRH Receptor: Validation Screen for Agonists (AID 493127);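 further: intracellular calcium rise by fluo-8 fluorescence before TRH EC20 addition; 0% is about no effect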
# stated.conditions: TRH receptor agonist cell assay; at 2 µM; hits give high values
Activity calls are given as the source filed them.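 The calls were made as follows: active = calcium activation more than 3 SD above the typical response in the agonist read; inactive = the rest.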
Provide the reported activation of each item.

> print(dat)
                      compound.structure  result.type            measured
1             CCN(CC)CCOC(=O)c1ccc(N)cc1   activation  -0.312% (inactive)
2  O=C(O)CCc1nc(-c2ccccc2)c(-c2ccccc2)o1   activation  -0.125% (inactive)

Items follow; give activation for each.
1. O=c1cc(-c2ccc(O)cc2)oc2cc(O)cc(O)c12
2. CCN1CCC[C@H]1CNC(=O)c1cc(S(N)(=O)=O)ccc1OC
3. CC1=C(/C=C/C(C)=C/C=C/C(C)=C/C(=O)Nc2ccc(O)cc2)C(C)(C)CCC1

**A:**
1. 0.5% (inactive)
2. 1% (inactive)
3. -0.438% (inactive)

---

# measurement.description: qHTS Screen of the MIPE 4.0 Collection Against Ewings Sarcoma (TC71) (AID 1259253); further: nearly all actives have a fitted effect of over 40% in size
# stated.conditions: TC71 Ewing sarcoma viability, CellTiter-Glo, 48 h; series mostly up to 45.8 µM
Records with an inconclusive call do not appear. Calls of active or inactive are those of the source. The call rests on the fitted dose curve; in most records, active means well fitted inhibition curve with a large enough effect; inconclusive means small, poorly fitted or top-dose-only effect; inactive means no such curve, though single readings can be large or run the other way.
Respond only with the outcome that fits, drawn from active, inactive

> print(dat)
                                   molecule  class.assignment
1  CCc1ccc(OCc2ccccc2C(=O)Nc2ccc3nc(C)cc(N)c3c2)cc1            active
2  O=c1c(-c2ccc(O)cc2)coc2cc(OC3O[C@H](CO)[C@H](O)[C@H](O)[C@H]3O)cc(O)c12 (stereo not given in full)            active
3  O=C1c2ccccc2-[n+]2ccc3c([nH]c4ccccc43)c21            active

**Q:** What outcome does the record of this test show for COc1ccc(Cc2nccc3cc(OC)c(OC)cc23)cc1OC ?
**A:** active

**Q:** Recorded test outcome, item COc1ccc(C2Sc3ccccc3N(CCN(C)C)C(=O)C2OC(C)=O)cc1 (stereo not given)
**A:** inactive

**Q:** Query: recorded result category for O=c1cc(-c2ccccc2)oc2cc(O)c(O)c(O)c12 in this test
**A:** active

**Q:** What was the test verdict on COC1CCC(N(C(=O)C2CCC(C)CC2)c2cc(C3=CCCCC3)sc2C(=O)O)CC1 (stereo not given) ?
**A:** active

**Q:** Please let me know the test result on file for CN(C)Cc1ccc(-c2nc3cccc4c3n2CCNC4=O)cc1 .
**A:** active

**Q:** Give the logged outcome of this assay for the following molecule: COc1cc2ncnc(-n3nc(-c4ccccn4)nc3N)c2cc1OC
**A:** active

**Q:** How did this test come out for O=C(Nc1cc(Cl)cc2c1[nH]c1cnccc12)c1cccnc1 ?
**A:** active

**Q:** Per the records of this test, what outcome belongs to O=c1cc(N2CCOCC2)oc2c(-c3cccc4c3sc3ccccc34)cccc12 ?
**A:** active

**Q:** Would you mind telling me which call this test gave O=C(CCN1CCN(C(=O)OCc2cc(Cl)cc(Cl)c2)CC1)c1ccc2[nH]c(=O)oc2c1 ?
**A:** inactive

**Q:** // return assay outcome for COc1ccc2c3c1OC1C[C@@H](O)C=C[C@@]31CCN(C)C2 (stereo not given in full)
**A:** active

**Q:** // return assay outcome for Cc1c(O)cccc1C(=O)N[C@@H](CSc1ccccc1)[C@H](O)CN1C[C@H]2CCCC[C@@H]2C[C@@H]1C(=O)NC(C)(C)C
**A:** active

**Q:** Recorded test outcome, item c1ccc2c(Cc3c[nH]c4ccccc34)c[nH]c2c1
**A:** active

**Q:** Please share the test call associated with CC1CCC(C(=O)N(c2cc(C#CC(C)(C)C)sc2C(=O)O)C2CCC(O)CC2)CC1 (stereo not given) .
**A:** active
